Please go through the items and note down their fold changes relative to vehicle control.
target: HeLa cell extract proteins (Homo sapiens); construct: endogenous in cells; host or cells: HeLa cell extract; type: binding; details: protein PCBP2; HeLa
Sequence (Q15366 whole entry): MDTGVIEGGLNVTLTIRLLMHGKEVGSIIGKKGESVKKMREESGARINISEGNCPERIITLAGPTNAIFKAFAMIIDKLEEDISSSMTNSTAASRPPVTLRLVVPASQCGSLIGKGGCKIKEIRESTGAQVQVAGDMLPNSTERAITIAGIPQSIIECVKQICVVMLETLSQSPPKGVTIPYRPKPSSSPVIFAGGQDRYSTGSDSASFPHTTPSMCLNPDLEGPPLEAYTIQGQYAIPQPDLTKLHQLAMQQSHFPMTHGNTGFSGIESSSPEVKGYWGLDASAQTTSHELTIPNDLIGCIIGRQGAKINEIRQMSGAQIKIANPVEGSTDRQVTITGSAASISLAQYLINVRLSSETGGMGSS

Past entries and their recorded results:
>  <Compound>
Nc1nc2c(c(=O)[nH]1)N(C=O)C(CNc1ccc(C(=O)N[C@@H](CCC(=O)O)C(=O)O)cc1)CN2 (stereo partly drawn)

>  <fold changes relative to vehicle control>
0.85

$$$$
>  <Compound>
CCCCCCOc1cccc(Cc2cnc(N)nc2N)c1

>  <fold changes relative to vehicle control>
1.28

$$$$
>  <Compound>
CCCCCCOc1ccc(Cc2cnc(N)nc2N)cc1

>  <fold changes relative to vehicle control>
0.96

$$$$
>  <Compound>
Nc1nc2cccc(-c3ccccc3)c2n1Cc1ccc(Cl)c(Cl)c1

>  <fold changes relative to vehicle control>
0.91

$$$$
>  <Compound>
NCCOCCOCC(=O)Nc1nc2ncc(CNc3ccc(C(=O)NC(CCC(=O)O)C(=O)O)cc3)nc2c(=O)[nH]1 (stereo not drawn)

>  <fold changes relative to vehicle control>
1.04

$$$$

// below: fold changes relative to vehicle control requested for another compound
-- ask Look at this compound and give its reported fold changes relative to vehicle control. NCCCNc1ccc(C(=O)NC(CCC(=O)O)C(=O)O)cc1 (stereo not drawn)
-- reply 0.96
